- ASSAY PROTOCOL: yeast display, Sf9 membrane polyspecificity reagent, FACS + sequencing; frameworks hold sequencing errors
ASSAY READOUT: polyreactivity (PSR sort gate)

Worked set:
[
  {
    "POLYMER SEQUENCE": "QFQLVESGGGLVQAGGSLRLSCDASGSIFSYYAMGWYRQAPGKERELVAAISQSGGTTYYADSLKGRFTISRDNEKNTVYLQMNSLKPEDTAVYYCAARAQSSFDTQYYYWGQGTQVTVSS",
    "ASSAY READOUT": "polyreactivity (PSR sort gate)",
    "RESULT": "low polyreactivity"
  },
  {
    "POLYMER SEQUENCE": "QVQLVESGGGLVQAGGSLRLSCAASGFTFGQYAMGWYRQAPGKERELVAAISWSGGSTYYADSVKGRFTISRDNAKNTVYLQMNSLKPEDTAVYYCGEDLGDYWGQGTQVTVSS",
    "ASSAY READOUT": "polyreactivity (PSR sort gate)",
    "RESULT": "high polyreactivity"
  },
  {
    "POLYMER SEQUENCE": "QVQLVESGGGLVQAGGSLRLSCAASGGTFNSNAMGWYRQAPGKEREFVAAISSSGGSTYYADSVKGRFTISRDNAKNTVYLQMNSLKPEDTAVYYCAKRYPYPNGRFRFGYWGQGTQVTVSS",
    "ASSAY READOUT": "polyreactivity (PSR sort gate)",
    "RESULT": "high polyreactivity"
  },
  {
    "POLYMER SEQUENCE": "QVQLVESGGGLVQAGGSLRLSCAASGFIFSSYAMGWYRPAPGKERELVAAISKSGGRTYYADSVKGRFTISRDNAKNTVYLQMNSLKPEDTSVYYCAKDVSDPFYDPFEYWGQGTQVTVSS",
    "ASSAY READOUT": "polyreactivity (PSR sort gate)",
    "RESULT": "low polyreactivity"
  }
]

Next:
Form: sequence = `QVQLVESGGGLVQAGGSRRLSCAASGRTFQYYAMGCYRQAPGKERELVASITYNGDITYYADSVKGRFTISRDNAKNTVYLQMNSLKPEDTAVYYCAATKFSDFGYQAVIGYGYWGQGTQVTVSS` ; polyreactivity (PSR sort gate) = low polyreactivity

====

- ASSAY PROTOCOL: yeast display, Sf9 membrane polyspecificity reagent, FACS + sequencing; frameworks hold sequencing errors
ASSAY READOUT: polyreactivity (PSR sort gate)

Worked set:
[
  {
    "POLYMER SEQUENCE": "QFQLVESGGGFVQAGGSLRLSCAASGRIFYRYAMGCYSQAPGKERELVAAITWRGGSTYYADSVKGRFTISRDNANNTVYLQMNSLKPEDTAVYYCAAAAYGVPWRSYLGVFKSHMDYWGQGTQVTVSS",
    "polyreactivity (PSR sort gate)": "high polyreactivity"
  },
  {
    "POLYMER SEQUENCE": "LVQLVESGGGLVQAGGSLRLSCAASGSTFDGYAMGWYRQAPGKERELVAAIAYSGSSTYYADSVTGRFTISRDNSKNTVYIQMNSQKQEDTAVYYCAVDDTHPFGPDGGGDYWGQGTQVTVSS",
    "polyreactivity (PSR sort gate)": "low polyreactivity"
  },
  {
    "POLYMER SEQUENCE": "QVQLVESGGGLVQAGGSLRLSCAASGSIFDSYVMGWYRQAPGKERELVAAITYSGGSTYADSVKGRFTISRDNAKNTVYLQMNSLKPEDTAVYYCAAASYFYLYLLEDYWGQGTQVTVSS",
    "polyreactivity (PSR sort gate)": "low polyreactivity"
  },
  {
    "POLYMER SEQUENCE": "QVQLVESGGGLVQAGGSLRLSCAASGRTFGTYAMGWSRQAPGKERELVASITWSGTSTYYADSVKGRFTISRDNAKNTVYLQMNSLKPEDTAVYYCAAGWGYYRYYYWGQGTQVTVSS",
    "polyreactivity (PSR sort gate)": "high polyreactivity"
  }
]

Form: sequence = `QVQLVESGGGLVQAGGSLRLSCAAYGSIRNFYAMGWNRKAPGKERELVPTISSGGNTHYADSVKGRFTISRDNAKNTVYFQMTSLKPEDTAVYYCNKVTIGGFFWYRAYDYWGQGTQVTVSS` ; polyreactivity (PSR sort gate) = low polyreactivity

====

- ASSAY PROTOCOL: yeast display, Sf9 membrane polyspecificity reagent, FACS + sequencing; frameworks hold sequencing errors
ASSAY READOUT: polyreactivity (PSR sort gate)

Worked set:
[
  {
    "POLYMER SEQUENCE": "QVQLVESGGGLVQAGGSLRLSCAASGRTFAQNAMGWYRQAPGKERELVAAITASGSITYYADSVKGRFTISRDNAKNTVYLQMNSLKPEDTAVSYCAARGRYHFFSKYDYWGQGTQVTVSS",
    "ASSAY READOUT": "polyreactivity (PSR sort gate)",
    "RESULT": "high polyreactivity"
  },
  {
    "POLYMER SEQUENCE": "QVQLVESGGGLVQAGGSLRLSCAASGRTFGKNAMGWYRQAPGKERELVAAISFSGGRTYYADSVKGRFTISRDNANNTVYLQMNSLKPEDTAVYYCAARGSRRGTWYDYWGQGTQVTVSS",
    "ASSAY READOUT": "polyreactivity (PSR sort gate)",
    "RESULT": "high polyreactivity"
  },
  {
    "POLYMER SEQUENCE": "QVQLVESGGGLVQAGGSLRLSCAASGRIFYNYAMGWYRQAPGKERELVAAISGSGGSTYYADSVKGRFTISRDNAKNTVYLQMNSLKPEDTAVYYCAKDYRWDRKFDYWGQGTQVTVSS",
    "ASSAY READOUT": "polyreactivity (PSR sort gate)",
    "RESULT": "low polyreactivity"
  },
  {
    "POLYMER SEQUENCE": "QVQLVESGGGLVQAGGSLRLSCAASGITFSGNTMGWYRQAPGKERELVAAISSGGSTYYADSVKGRFTISRDNAKNTVLLQMNSLKPEDTAVYYCNADIYYAPYDYWGQGTQVTVSS",
    "ASSAY READOUT": "polyreactivity (PSR sort gate)",
    "RESULT": "low polyreactivity"
  }
]

Form: sequence = `QVQLVESGGGLVQAGGSLRLSCAASGITFRFNAMGWYRQAPGKEREFVAAITYSGDSTYYADSVKGRFTISRDNAKNTVYLQMNSLKPEDTAVYYCAADASSKLYDYWGQGTQVTVSS` ; polyreactivity (PSR sort gate) = low polyreactivity

====

- ASSAY PROTOCOL: yeast display, Sf9 membrane polyspecificity reagent, FACS + sequencing; frameworks hold sequencing errors
ASSAY READOUT: polyreactivity (PSR sort gate)

[
  {
    "POLYMER SEQUENCE": "QVQLVESGAGLVQAGGSLRLSCAASGSIYVYAMGWSRQAPGKERELVAAISWSDGSTYYADSVKGRFTISRDNAKNTVYLQMNSLKPEDTAVYYCNAYGIQVDTYWQDRVEYDYWGQGTQVTVSS",
    "ASSAY READOUT": "polyreactivity (PSR sort gate)",
    "RESULT": "high polyreactivity"
  },
  {
    "POLYMER SEQUENCE": "QVQLVESGGGLVQAGRSLRLSCAASGRIFRSYAMGWYRQAAGKERELVAAINYSGGNTYYADSVKGRFTISRDNAKNTVYLQLNCVKPDDTAVFYCNARGYYYSSRYGYWGQGTQVTVSS",
    "ASSAY READOUT": "polyreactivity (PSR sort gate)",
    "RESULT": "high polyreactivity"
  }
]

====

- ASSAY PROTOCOL: yeast display, Sf9 membrane polyspecificity reagent, FACS + sequencing; frameworks hold sequencing errors
ASSAY READOUT: polyreactivity (PSR sort gate)

Worked set:
[
  {
    "POLYMER SEQUENCE": "QVQLVESGGGLVQAGGSLRLSCAASGGTFYIYVMGWYIQAPGKERELVAAITSGDSTNYADSVKGRFTISRDNAKNTVYLQMNSLKPEDTAVYYCATGYWELRYDYWGQGTQVTVSS",
    "polyreactivity (PSR sort gate)": "low polyreactivity"
  },
  {
    "POLYMER SEQUENCE": "QVQLVESGGGLVQAGGSLRLSCAASGRTFGWYTMGRYRQAPGKEREMVAGISSSGGSTYYADSVKGRFTISRDNAKNTVYLQMNSMKPEDTAVYYFARETYPHGLYYRPYDYWGQGTQVTVSS",
    "polyreactivity (PSR sort gate)": "low polyreactivity"
  },
  {
    "POLYMER SEQUENCE": "QVQLVESGGGLVQAGGSLRLSCAASGRIFRYNAMGWYRQAPGKERELVAAITSGTGTNYADSVKGRFTISRDNAKNTVYLQMNSLKPEDTAVYYCAAQPGQAWWSTDHDDYWGQGTQVTVSS",
    "polyreactivity (PSR sort gate)": "low polyreactivity"
  },
  {
    "POLYMER SEQUENCE": "QVQLVESGGGIVQAGGSLRLSCAASGSTFAANAMGWYRPAPGKERELVAAITSGGGSTYYADSVKGRFTISRDNAKNTVYLQMNSLKPEDTAVYYCNAADWLETQVDLDYWGQGTQVTVSS",
    "polyreactivity (PSR sort gate)": "low polyreactivity"
  },
  {
    "POLYMER SEQUENCE": "QVQLVESGGGLVQAGGSLRLSCAASGFIFDYYAMGWYRQAPGKERELVATISSSGGSTYYADSVKGRFTISRDNAKNTVYLQMNSLKPEDTAVYYCATGYTWVADSWEYYYWGQGTQVTVSS",
    "polyreactivity (PSR sort gate)": "low polyreactivity"
  }
]

Give one value of polyreactivity (PSR sort gate) per listed sequence.
1. QGQLVESGGGLVQAGGSLRLSCAASARTYGNYAMGRYREAPGKERELVADITRRGGSTSYADSVKGRFTISRDNAKNTVYLQMNSLKPEDTAVYYCNKRTTPYYSQGITRIEYDYWGQGTQVTVSS
2. QVQLVESGGGLVQAGGSLRLSCAASGLTFRKNAMGWYRQAPGKERELVAGISSGGSTYYADSVKGRFTISRDNAKNTVYLQMNSLKPEDTAVYYCGANALRTMYYWGQGTQVNVSS
3. QVQLVESGGGLVQAGGSLRLSCAASGRIFWVYAMGGYRQAPGKERELVAAINTSVGRTHYADSVKGRFTISRDNAKNTVYLQMNSLKPEDTAVYYCAADVKRYGWEYGYWGQGTQVTVSS

### Response
1. low polyreactivity
2. high polyreactivity
3. low polyreactivity

Give one value of polyreactivity (PSR sort gate) per listed sequence.
1. QVQLVESVGGLVQAGGSLRLSCAASGITFDRNAMGWYRQAPGKERELVAAISSGGTYADSVKGRFTISRDNAKNTVYLQMNSLKPEDTAVYYCNADTDYIRWIYGYWGQGTQVTVSS
2. QVQLVESGGRLVQAGGSLRLSCAASGRIIAYNAKGWYRQAPGKERELVDAISRSGGSTYYADSVKGRFTISRDNAKNTVYLQMNSLKPEDTAVYYCAASLKVPYATMNYWGQGTQVTVSS
3. QVQLVESGGGLVQAGGSLRLSCAASGRIFWQYAMGWYRQAPGNERELVAGITSNGGSTYYADSVKGRFTISRDNAKNTVYLQMNSLKPEDTAVYYCNKVRPGWTYEYGYWGQGTQVTVSS

### Response
1. low polyreactivity
2. high polyreactivity
3. high polyreactivity

Measured values drawn from the nanobody polyreactivity screen of Harvey et al. (2022) for this set.
